Test: PK/TK single dose studies
Assay type: in vivo
Settings: rhesus monkey, plasma, intramuscular, 0.016 mg/kg; rhesus monkeys; read-out: AUC at NOAEL for behavioral side effects
outcome-measure: AUC (µM·h)
Write the number in µM·h without appending the unit.

[Q] Could you please provide reported AUC for c1cnc2c(c1)C[C@@]1(CN3CCC1CC3)O2 ? Thanks!
[A] 0.028

====

Test: Cardiovascular/respiratory telemetry and whole body plethysmography
Format: in vivo, rat
Conditions: plasma; rat, oral, whole-body plethysmography; read-out: NOAEL on ventilatory function / respiration, total Cmax
outcome-measure: Cmax

[Q] Could you please provide reported Cmax for c1cnc2c(c1)C[C@@]1(CN3CCC1CC3)O2 [AZD0328] ? Thanks!
[A] ≤ 31.2 µM

Attribution: patent US20100168146A1
